target: MtuUng (Mycobacterium tuberculosis uracil DNA glycosylase) (Mycobacterium tuberculosis, UniProt P9WFQ9)
Sequence (P9WFQ9 whole entry): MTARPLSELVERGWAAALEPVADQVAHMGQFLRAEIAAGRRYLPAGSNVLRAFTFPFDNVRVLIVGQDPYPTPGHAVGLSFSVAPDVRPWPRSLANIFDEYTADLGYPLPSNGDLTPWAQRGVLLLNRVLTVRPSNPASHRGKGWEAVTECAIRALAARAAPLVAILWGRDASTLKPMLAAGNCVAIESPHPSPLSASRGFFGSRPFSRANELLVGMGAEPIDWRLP
RECORDED_ENDPOINT: IC50

>>> print(df.to_string())
                                   compound  recorded_value
0    Nc1c[nH]c(=O)[nH]c1=O [5-Amino-Uracil]         7.18 mM
1  O=c1[nH]cc(Cl)c(=O)[nH]1 [5-Chloro-Uracil]         8.71 mM
2  O=c1[nH]cc(Br)c(=O)[nH]1 [5-Bromo-Uracil]         13.6 mM
3  O=c1[nH]cc(F)c(=O)[nH]1 [5-Fluoro-Uracil]         50.2 mM
4             O=c1cc[nH]c(=O)[nH]1 [Uracil]         2.05 mM
5      O=C1CC(=O)NC(=O)N1 [Barbituric acid]         7.29 mM
6  O=[N+]([O-])c1cnc(O)nc1O [5-Nitro-Uracil]         10.8 mM
7      O=c1[nH]ccc(=S)[nH]1 [4-Thio-Uracil]         3.57 mM
8   O=c1[nH]cc(I)c(=O)[nH]1 [5-Iodo-Uracil]         4.92 mM
